These data points were gathered from ChEMBL document CHEMBL2384956.

# test-method-notes: Ratio of Cmax in mouse lung to Cmax in mouse plasma at 25 mg/kg, po
# Format: ADME, organism-based
# Set-up: dose 25 mg/kg, route oral
measure-name: Kp
Answers are plain numbers.

O=C(NCc1ccc(F)cc1)c1cnn2c1N[C@@H](c1ccc(OC3COC3)cc1)C[C@H]2C(F)(F)F: 2.7
Cc1ccc([C@H]2C[C@@H](C(F)(F)F)n3ncc(C(=O)NCc4ccc(F)cc4)c3N2)nc1: 1.9

Batch of 2 molecules: report Kp for each.
1. Cc1ccc([C@H]2C[C@@H](C(F)(F)F)n3ncc(C(=O)NCc4ccc(F)cc4)c3N2)cc1
2. Cc1ccc([C@H]2C[C@@H](C(F)F)n3ncc(C(=O)NCc4ccc(F)cc4)c3N2)nc1

1: 3.2; 2: 1.7

---

# test-method-notes: Clearance in mouse liver microsomes
# Assay type: ADME, Microsome
# conditions: read-out: CLH
Kindly state microsomal CLint for each of the entries shown.
One number for each entry, in µL/min/mg.

Cc1ccc([C@H]2C[C@@H](C(F)(F)F)n3ncc(C(=O)NCc4ccc(F)cc4)c3N2)cc1: 43.5
O=C(NCc1ccc(F)cc1)c1cnn2c1N[C@@H](c1ccc(OC3COC3)cc1)C[C@H]2C(F)(F)F: 8.92
Cc1ccc([C@H]2C[C@@H](C(F)(F)F)n3ncc(C(=O)NCc4ccc(F)cc4)c3N2)nc1: 71.8

Consider now this further compound.
Param item = Cc1ccc([C@H]2C[C@@H](C(F)F)n3ncc(C(=O)NCc4ccc(F)cc4)c3N2)nc1 ; retrieve measured microsomal CLint. 85.6

---

For each of the compounds below, state its AUC.
# test-method-notes: AUC in mouse at 25 mg/kg, po
# Assay type: ADME, organism-based
# Set-up: dose 25 mg/kg, route oral
# conditions: plasma
Numbers only, in µM·h.

Cc1ccc([C@H]2C[C@@H](C(F)F)n3ncc(C(=O)NCc4ccc(F)cc4)c3N2)nc1: 16.8
Cc1ccc([C@H]2C[C@@H](C(F)(F)F)n3ncc(C(=O)NCc4ccc(F)cc4)c3N2)cc1: 18.9
Cc1ccc([C@H]2C[C@@H](C(F)(F)F)n3ncc(C(=O)NCc4ccc(F)cc4)c3N2)nc1: 25

Suppose we examine the compound O=C(NCc1ccc(F)cc1)c1cnn2c1N[C@@H](c1ccc(OC3COC3)cc1)C[C@H]2C(F)(F)F ; what AUC value has been reported? 41.7

---

# test-method-notes: Ratio of AUC in mouse lung to AUC in mouse plasma at 25 mg/kg, po
# Assay type: ADME, organism-based
# Design: dose 25 mg/kg, route oral
# conditions: read-out: Ratio AUC
measure-name: Kp
Give bare numbers.

Solved cases (3 shown):
Cc1ccc([C@H]2C[C@@H](C(F)(F)F)n3ncc(C(=O)NCc4ccc(F)cc4)c3N2)cc1: 4.5
O=C(NCc1ccc(F)cc1)c1cnn2c1N[C@@H](c1ccc(OC3COC3)cc1)C[C@H]2C(F)(F)F: 2.2
Cc1ccc([C@H]2C[C@@H](C(F)(F)F)n3ncc(C(=O)NCc4ccc(F)cc4)c3N2)nc1: 2.1

Field request: Kp | item: Cc1ccc([C@H]2C[C@@H](C(F)F)n3ncc(C(=O)NCc4ccc(F)cc4)c3N2)nc1 2.8

---

# test-method-notes: AUC in mouse
# Format: ADME, organism-based
# conditions: plasma
measure-name: AUC (µM·h)
One number for each entry, in µM·h.

Look up AUC: Cc1ccc([C@H]2C[C@@H](C(F)(F)F)n3ncc(C(=O)NCc4ccc(F)cc4)c3N2)cc1 91.1
